Test system: A498 renal
Assay Notes: NCI tumour cell line growth inhibition, 48 h; in the data active = GI50 below about 0.43 µM; inactive = the rest
Write down one outcome, taken from active, inactive

Worked cases, answers included:
c1ccc(-c2nc(-c3ccccn3)nc(-c3ccccn3)n2)nc1: inactive
O=C(Oc1cccnc1)c1cccnc1Nc1ccnc(C(F)(F)F)c1: inactive
O=C1OCC2=C1C(c1cccc(F)c1)c1cc3c(cc1N2CCO)OCO3 (stereo not given): inactive
Clc1ccc(-c2cn3ccnc3c(-c3ccc(Cl)cc3)n2)cc1: inactive
O=C1/C(=C/c2ccc([N+](=O)[O-])cc2)CN(C(=O)CCN2CCC(=NO)CC2)C/C1=C\c1ccc([N+](=O)[O-])cc1: inactive

Input: What call does the record list for `N#CC(C#N)=C/C=C(\Cl)c1ccc(Cl)cc1` ?
Output: inactive

Input: I'd appreciate the recorded outcome for CCN1C(=O)N(CC)C2C1NN=c1s/c(=C\c3ccc(Cl)cc3Cl)c(=O)n12 (stereo not given) from this test.
Output: active

Input: How did this test come out for `COc1cc(C)ccc1C(=O)c1ccc(C)cc1OC` ?
Output: inactive

Input: GET /call?item= `CC[O-].CC[O-].O=C([CH-]C(=O)c1ccccc1)CCCCCCCCC(=O)[CH-]C(=O)c1ccccc1.[Ti+4]` returns the recorded outcome of this test.
Output: inactive

Input: Hey, what did the test say about `COc1ccc(-c2noc(C(=O)O)c2-c2cc(OC)c(OC)c(OC)c2)cc1` ?
Output: inactive

----------
Measured TGI of individual entries
Tested on: A498 renal
Assay Notes: NCI tumour cell line growth inhibition, 48 h
State just the number; it will be interpreted in µM.

For record `O=C(c1ccc2ccccc2c1)c1c(C(F)(F)F)n([O-])c2ccc(C(F)(F)F)cc2[n+]1=O` the listed TGI is 1.97

TGI for `Cc1ccc2cnc(N)c(C#Cc3cc(C(=O)Nc4ccc(CN5CCN(C)CC5)c(C(F)(F)F)c4)cnc3C)c2c1` is 1.57

For this compound ( `O=C1/C(=C/c2ccc([N+](=O)[O-])cc2)CN(C(=O)CCN2CCC(=NO)CC2)C/C1=C\c1ccc([N+](=O)[O-])cc1` ), measured TGI is 3.95

Note to self: TGI recorded for `Fc1ccc(C(OCCN2CCN(CCCc3ccccc3)CC2)c2ccc(F)cc2)cc1` was 19.7

Measured TGI of Cc1ccc(C)c(NC(=O)C(=O)C(C(=O)c2ccc3ccccc3c2)C2OC(=O)c3ccccc32)c1 (centres undefined) : 47.4

TGI reported for this compound `CCOC(=O)Oc1c(OC)cc(C(=O)c2ccc(OC)c(O)c2OC)cc1OC` : 17

Per the record, `N#CC(C#N)=C/C=C(\Cl)c1ccc(Cl)cc1` has TGI of 38.6

The value of TGI measured for the compound `Clc1ccc(-c2cn3ccnc3c(-c3ccc(Cl)cc3)n2)cc1` turned out to be 77.2

For this compound ( `Nc1nc2ccc(-c3nc4ccc5[nH]ncc5c4c4c3CCC4)cc2s1` ), measured TGI is 0.624

The value of TGI measured for the compound `CN(C)CCNc1ccc2c(=O)n(CCN(C)C)c(=O)n3c4ccc(O)cc4c(=O)c1c23` turned out to be 0.515

`C=CCSC1=N/C(=C\c2ccc(Cl)cc2)C(=O)N1CC=C` yielded TGI of 52.4

Per the records, this compound ( `COc1ccc2c(c1)C(=O)/C(=C/c1cccc(OCC(=O)c3ccccc3)c1)CC2` ) has TGI equal to 80.8

Documented TGI of O=C1C2C3C=C4c5ccccc5N(c5ccccc5)C4(C2C(=O)N1c1ccccc1)C1C(=O)N(c2ccccc2)C(=O)C31 (centres undefined) : 5.13

----------
Test system: OVCAR-8 ovarian
Assay Notes: NCI tumour cell line growth inhibition, 48 h; in the data active means GI50 below about 0.43 µM; inactive means the rest
Classes to choose from: 1.0 for active, 0.0 for inactive

Cc1ccc2cnc(N)c(C#Cc3cc(C(=O)Nc4ccc(CN5CCN(C)CC5)c(C(F)(F)F)c4)cnc3C)c2c1: 0.0

Input: Hey, what did the test say about `O=C(Nc1cccc(Cl)c1)Nn1cnnc1` ?
Output: 0.0

Input: I would be grateful if you could indicate the recorded call for `CN1CCC(CNc2cc(C3(C(=O)Nc4cc(C(=O)Nc5ccc(Cl)c(C(F)(F)F)c5)ccc4F)CC3)ncn2)CC1` .
Output: 0.0

Input: What is the recorded call for this compound in the test? `CCCCN(CCCC)Cc1cc(Nc2ccnc3cc(Cl)ccc23)ccc1O`
Output: 0.0

Input: Hello, I am checking results. What call was entered for `O=S(=O)(Nc1ccc(Br)cc1)c1ccc(-c2cnc(C3CC3)o2)cc1` ?
Output: 0.0

Input: Answer briefly: the call reported for `N#CC(C#N)=C/C=C(\Cl)c1ccc(Cl)cc1` in this assay.
Output: 0.0

Input: // param item: CC1CC(C)CC(C)C(O)/C(C#N)=C/C=C/CC(C2CCCC2C(=O)O)OC(=O)CC(O)C(C)C1 (stereo not given) ; yields the recorded call
Output: 1.0

Input: What was the test verdict on `Nc1nc2ccc(-c3nc4ccc5[nH]ncc5c4c4c3CCC4)cc2s1` ?
Output: 0.0

Input: Returns: the outcome recorded for `Cc1cc([NH-])c([NH-])cc1C.[Cl][Pt+2][Cl]` in this assay.
Output: 0.0

Input: Entry c1ccc(C2ONC3=NCCN32)cc1 (stereo not given) : call = ?
Output: 0.0

----------
Test system: NCI-H23 lung
Assay Notes: NCI tumour cell line growth inhibition, 48 h
Reported Metric: log10 of TGI (log10 of the value in µM)
All values: base-10 log of TGI in µM.

CC(=O)Nc1ccc2c(C)c3c(nc2n1)[nH]c1ccccc13: 1.96
CC(=O)c1c(O)c(C)c(O)c(Cc2c(O)c3c(c(C(=O)/C=C/c4ccccc4)c2O)OC(C)(C)C=C3)c1O: 1.15

log10 of TGI on NCI-H23 lung for `c1cc[c]([Sn][c]2ccccc2)cc1` is 1.37

// assay NCI-H23 lung, entry `CC1=C2C(=C[C@@](C)(CO)[C@@H]2OC(=O)N(C)CCN(C)C(=O)OC(C)(C)C)C(=O)[C@](C)(O)C12CC2` , log10 of TGI value = 1.20

The compound `Nc1nc2ccc(-c3nc4ccc5[nH]ncc5c4c4c3CCC4)cc2s1` on NCI-H23 lung: log10 of TGI was 0.92

----------
Tested on: RXF 393 renal
Assay Notes: NCI tumour cell line growth inhibition, 48 h
Reported Metric: TGI (µM)
Quick note: give the figure in µM, leave out the unit.

The cases that follow already have their TGI on record.
COC(=O)Cc1cc(O)c2c(c1O)C(=O)c1ccccc1C2=O: 63.7
CCOC(=O)c1c(C)n(Cc2ccc(Cl)cc2Cl)c2c1cc(O)c1[nH]c3c(c12)CCCC3: 41.2
O=C(Oc1cccnc1)c1cccnc1Nc1ccnc(C(F)(F)F)c1: 80.4

Query compound follows.
Short answer for `Cc1cc([NH-])c([NH-])cc1C.[Cl][Pt+2][Cl]` : TGI was 31.1

----------
System: NCI-H226 lung
Assay Notes: NCI tumour cell line growth inhibition, 48 h
Reported Metric: GI50

Cc1ccc2cnc(N)c(C#Cc3cc(C(=O)Nc4ccc(CN5CCN(C)CC5)c(C(F)(F)F)c4)cnc3C)c2c1: 0.538 µM

Documented GI50 of `COc1ccc(C2=Nn3c(nnc3-c3cc(Cl)cc(Cl)c3Cl)SC2)cc1` : 0.778 µM

GI50 in this record for `COc1ccc2c(c1)C(=O)/C(=C/c1cccc(OCC(=O)c3ccccc3)c1)CC2` : 28.6 µM

// GI50 value for `C/C(=N/O)c1cccc(Nc2cc(-n3nnc4ccccc43)nc3ccccc23)c1` : 11.8 µM

GI50 measured on `c1cc[c]([Sn][c]2ccccc2)cc1` = 21.8 µM

The compound listed as `Clc1ccc(-c2cn3ccnc3c(-c3ccc(Cl)cc3)n2)cc1` has a reported GI50 of 40.8 µM

Documented GI50 of `COc1cccc(-c2nc3cc(NC(=O)c4ccc(Cl)c(C#N)c4)ccc3o2)c1` : 6.49 µM

Given item CC1=C([Se]CC(OC(=O)CC[Se]c2ccccc2)C(=O)NC(C)(C)C)C(=O)c2ccccc2C1=O (centres undefined) , the value recorded as its GI50 is 2 µM

GI50 reading for C=C1CCC2C3(C)COC(C)(C)OC3CCC2(C)C1C/C=C1/C(=O)OCC1OC(C)=O (centres undefined) : 12.8 µM

----------
System: UACC-257 melanoma
Assay Notes: NCI tumour cell line growth inhibition, 48 h
Reported Metric: TGI

Use these answered entries as a reference point.
Cc1cc(C)nc(NS(=O)(=O)c2ccc(NC(=O)c3c4ccccc4nc4ccccc34)cc2)n1: > 100 µM
Oc1cc(Cc2ccccc2)c(Cc2ccccc2)cc1O: > 10 µM
O=C(NCC1CC1)c1ccc(-c2cccc(C(=O)NC3CC3)c2)cc1: > 25 µM
C=C1CCC2C3(C)COC(C)(C)OC3CCC2(C)C1C/C=C1/C(=O)OCC1OC(C)=O (stereo not given): 5.62 µM
COc1cc2c(c(O)c1O)C(=O)C1CCC(=O)N1C2c1cccc2ccccc12 (stereo not given): > 50 µM

# TGI of `C[C@H](c1ccccc1)N1C(=O)[C@@H](O)[C@H]1[C@H](CO)OCc1ccccc1` = > 100 µM

Form field TGI, entry O=C1OCC2=C1C(c1cccc(F)c1)c1cc3c(cc1N2CCO)OCO3 (stereo not given) : > 50 µM

Documented TGI of `FC(F)(F)c1cccc(-c2nc3nc(Cl)c(Cl)nc3[nH]2)c1` : > 30.9 µM

compound COC(=O)C1=C(O)C(C(=O)OC)C2CC(=O)CC1C2(C)C (stereo not given) , TGI observed: > 100 µM

Just so you know, measured TGI for `c1ccc(-c2csc3c4ccccc4c4ccccc4[n+]23)cc1` came out at 3.27 µM

Notebook: CCC1(O)C(=O)OCc2c1cc1n(c2=O)Cc2cc3ccccc3nc2-1 (stereo not given) , TGI read as 3.57 µM

// `CN(C)CCNC(=O)Cn1ccc(=O)c2cc([N+](=O)[O-])ccc21` : TGI value = > 100 µM

Looking up `N#CC(C#N)=C/C=C(\Cl)c1ccc(Cl)cc1` , I found its TGI recorded as 30.2 µM

TGI reading for `CCOC(=O)Oc1c(OC)cc(C(=O)c2ccc(OC)c(O)c2OC)cc1OC` : > 100 µM

The recorded TGI for `CCC/C(Cl)=N\OC(=O)Nc1ccc(F)cc1` is 30.5 µM
